From: ChEMBL document CHEMBL5620353

test system: Candida albicans; assay: Antifungal activity against fluconazole-resistant Candida albicans 901 assessed as inhibition of fungal growth incubated for 48 hrs by microbroth dilution method; type: functional
Readout label: MIC (µg/mL)
One number for each entry, in µg/mL.

Solved cases (3 shown):
chemical_smiles=C[C@@H](OCC#Cc1ccc(F)cc1)[C@](O)(Cn1cncn1)c1ccc(F)cc1F test_result=64
chemical_smiles=C[C@@H](OCC#Cc1ccc(F)cc1F)[C@](O)(Cn1cncn1)c1ccc(F)cc1F test_result=32
chemical_smiles=C[C@@H](OCC#Cc1ccc(Cl)cc1Cl)[C@](O)(Cn1cncn1)c1ccc(F)cc1F test_result=64

Turning now to a further record.
Q. What value of MIC on Candida albicans does `C[C@@H](OCC#Cc1ccc(C#N)cc1)[C@](O)(Cn1cncn1)c1ccc(F)cc1F` have?
A. 16

###

test system: [Candida] auris; assay: Antifungal activity against fluconazole-resistant Candida auris 918 assessed as inhibition of fungal growth incubated for 48 hrs by microbroth dilution method; format: functional; settings: Candidozyma auris
Assign MIC to each entry below.
Give bare numbers, in µg/mL.

Solved cases (2 shown):
compound=C[C@@H](OCC#Cc1ccc(C#N)cc1)[C@](O)(Cn1cncn1)c1ccc(F)cc1F readout_label=MIC test_result=32
compound="C[C@@H](c1nc(-c2ccc(C#N)cc2)cs1)[C@](O)(Cn1cncn1)c1ccc(F)cc1F [RAVUCONAZOLE]" readout_label=MIC test_result=1

Q. # MIC lookup, item `C[C@@H](OCC#Cc1ccc(Cl)cc1Cl)[C@](O)(Cn1cncn1)c1ccc(F)cc1F`
A. 16

###

Assign MIC to each entry below.
test system: Saccharomyces cerevisiae; experiment: Antifungal activity against recombinant Saccharomyces cerevisiae Y2374 overexpressing CgErg11 assessed as inhibition of fungal growth incubated for 48 hrs by microbroth dilution method; type: functional
One number for each entry, in µg/mL.

Solved cases (3 shown):
chemical_smiles=CC[C@@H]([C@H](C)O)n1ncn(-c2ccc(N3CCN(c4ccc(OC[C@@H]5CO[C@@](Cn6cncn6)(c6ccc(F)cc6F)C5)cc4)CC3)cc2)c1=O test_result=1
chemical_smiles=OC(Cn1cncn1)(Cn1cncn1)c1ccc(F)cc1F test_result=4
chemical_smiles=C[C@@H](c1nc(-c2ccc(C#N)cc2)cs1)[C@](O)(Cn1cncn1)c1ccc(F)cc1F test_result=0.063

Q. # MIC lookup, item `C[C@@H](OCC#Cc1ccc(F)cc1F)[C@](O)(Cn1cncn1)c1ccc(F)cc1F`
A. 0.063

###

tested on: Saccharomyces cerevisiae; experiment: Antifungal activity against recombinant Saccharomyces cerevisiae Y2459 overexpressing CaErg11 CaCpr assessed as inhibition of fungal growth incubated for 48 hrs by microbroth dilution method; assay type: functional
Readout label: MIC (µg/mL)
One number for each entry, in µg/mL.

Solved cases (7 shown):
compound=CC[C@@H]([C@H](C)O)n1ncn(-c2ccc(N3CCN(c4ccc(OC[C@@H]5CO[C@@](Cn6cncn6)(c6ccc(F)cc6F)C5)cc4)CC3)cc2)c1=O target="Saccharomyces cerevisiae" readout_label=MIC measurement_unit=µg/mL test_result=2
compound="CC(=O)N1CCN(c2ccc(OCC3COC(Cn4ccnc4)(c4ccc(Cl)cc4Cl)O3)cc2)CC1 (stereo not drawn)" target="Saccharomyces cerevisiae" readout_label=MIC measurement_unit=µg/mL test_result=0.5
compound=C[C@@H](c1nc(-c2ccc(C#N)cc2)cs1)[C@](O)(Cn1cncn1)c1ccc(F)cc1F target="Saccharomyces cerevisiae" readout_label=MIC measurement_unit=µg/mL test_result=0.016
compound=OC(Cn1cncn1)(Cn1cncn1)c1ccc(F)cc1F target="Saccharomyces cerevisiae" readout_label=MIC measurement_unit=µg/mL test_result=2
compound=C[C@@H](OCC#Cc1ccncc1)[C@](O)(Cn1cncn1)c1ccc(F)cc1F target="Saccharomyces cerevisiae" readout_label=MIC measurement_unit=µg/mL test_result=0.016
compound=C[C@@H](OCC#Cc1ccc(C#N)cc1)[C@](O)(Cn1cncn1)c1ccc(F)cc1F target="Saccharomyces cerevisiae" readout_label=MIC measurement_unit=µg/mL test_result=0.016
compound=C[C@@H](OCC#Cc1ccc(F)cc1F)[C@](O)(Cn1cncn1)c1ccc(F)cc1F target="Saccharomyces cerevisiae" readout_label=MIC measurement_unit=µg/mL test_result=0.016

Turning now to a further record.
Q. # MIC lookup, item `C[C@@H](c1ncncc1F)[C@](O)(Cn1cncn1)c1ccc(F)cc1F`
A. 0.016
